Below, each entry is listed with its recorded pIC50.
- TARGET_UNDER_TEST: pY705-STAT3 in PBMC (Homo sapiens, UniProt P40763)
- Construct: Cryopreserved Peripheral Blood Mononuclear Cells (PBMC) are from AllCells; host or cells: cryopreserved PBMC
- Sequence (P40763 whole entry): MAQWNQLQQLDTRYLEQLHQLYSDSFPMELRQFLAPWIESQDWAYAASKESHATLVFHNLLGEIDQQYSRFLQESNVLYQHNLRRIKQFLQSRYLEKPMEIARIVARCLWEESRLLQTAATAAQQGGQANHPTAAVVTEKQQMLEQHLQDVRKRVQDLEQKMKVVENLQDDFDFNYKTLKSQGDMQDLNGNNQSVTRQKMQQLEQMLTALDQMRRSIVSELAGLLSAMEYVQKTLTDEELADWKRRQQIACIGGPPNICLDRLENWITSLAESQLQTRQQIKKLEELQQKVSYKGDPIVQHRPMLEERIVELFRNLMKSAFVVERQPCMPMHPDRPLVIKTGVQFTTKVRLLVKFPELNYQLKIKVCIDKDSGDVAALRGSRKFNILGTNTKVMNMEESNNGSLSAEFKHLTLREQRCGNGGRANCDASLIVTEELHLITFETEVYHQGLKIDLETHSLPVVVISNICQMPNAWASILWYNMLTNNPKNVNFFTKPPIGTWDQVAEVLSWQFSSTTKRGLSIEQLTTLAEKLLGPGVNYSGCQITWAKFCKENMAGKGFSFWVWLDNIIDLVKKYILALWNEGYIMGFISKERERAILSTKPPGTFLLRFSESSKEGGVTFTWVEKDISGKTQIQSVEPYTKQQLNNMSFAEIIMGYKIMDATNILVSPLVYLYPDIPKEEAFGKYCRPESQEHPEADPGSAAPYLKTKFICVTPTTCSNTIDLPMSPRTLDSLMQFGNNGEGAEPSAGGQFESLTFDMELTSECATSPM
- TEST_METHOD_NOTES: MSD-pSTAT-PBMC Assay (pSTAT3, IL-6 stimulated)
- Format: cell-based
- CONDITION_SET: PBMC, compound 3 hrs, then 10 ng/mL IL-6 for 10 min; Table 1114; read-out: pSTAT3
pIC50: −log10 of the molar value.
ENDPOINT: pIC50

[[record]]
compound = "CC(C)CC(=O)SCCOP(=O)(OCCSC(=O)CC(C)C)C(F)(F)c1ccc2sc(C(=O)N[C@H]3CCCCC4CC[C@@H](C(=O)N5C[C@H](c6ccccc6)[C@@H](C#N)C5)N4C3=O)cc2c1 (single isomer, unassigned)"
value_reported = "< 5.52"

[[record]]
compound = "CC(C)(C)C(=O)OCOP(=O)(OCOC(=O)C(C)(C)C)C(F)(F)c1ccc2ccc(C(=O)N[C@H]3CCCC[C@H]4CC[C@@H](C(=O)N5C[C@@H](C#N)[C@]6(C5)C(=O)Nc5ccccc56)N4C3=O)cc2c1 (single isomer, unassigned)"
value_reported = "> 7.00"

[[record]]
compound = "CCCC(=O)SCCOP(=O)(Oc1cccnc1)C(F)(F)c1ccc2sc(C(=O)N[C@H]3CCCC[C@H]4CC[C@@H](C(=O)N5C[C@@H](C#N)[C@H](c6ccccc6)C5)N4C3=O)cc2c1 (single isomer, unassigned)"
value_reported = "6.00 to 7.00"

[[record]]
compound = "CC(C)C(=O)SCCOP(=O)(OCCSC(=O)C(C)C)C(F)(F)c1ccc2sc(C(=O)N[C@H]3CCCCC4CC[C@@H](C(=O)N5C[C@H](c6ccccc6)[C@@H](C#N)C5)N4C3=O)cc2c1 (single isomer, unassigned)"
value_reported = "6.00 to 7.00"

